From: ChEMBL document CHEMBL1125135

Consider the following compounds; for each one, report its Mortality.
- Tested on: Mus musculus
- experimentNotes: Toxicity and mortality indicates the number of dead animals / number of animals used at dose of 500 mg/kg by administering intravenously (iv) in 3 mice.
- Type: organism-based
- Parameters: dose 500 mg/kg, route intravenous
- cond: in vivo
Write no unit; give the number alone.

I am curious: what Mortality value has been reported for `NC(=O)[C@@H]1CCCN1C(=O)[C@H](Cc1c[nH]cn1)NC(=O)[C@@H]1CC(=O)N(Cc2ccccc2)C(=O)N1` ?
3

I'd like to know its Mortality. The compound in question is `CN1C(=O)C[C@@H](C(=O)N[C@H](Cc2c[nH]cn2)C(=O)N2CCC[C@H]2C(N)=O)NC1=O`
0

State the recorded Mortality for this entry: NCCN1C(=O)CC(C(=O)N[C@@H](Cc2c[nH]cn2)C(=O)N2CCC[C@H]2C(N)=O)NC1=O (mixture of isomers)
0

Tell me the measured Mortality of `NC(=O)[C@@H]1CCCN1C(=O)[C@H](Cc1c[nH]cn1)NC(=O)[C@@H]1CC(=O)N(CCF)C(=O)N1` , please.
1

Entry `CCCCCN1C(=O)C[C@@H](C(=O)N[C@@H](Cc2c[nH]cn2)C(=O)N2CCC[C@H]2C(N)=O)NC1=O` : reported Mortality = ?
2

Would you mind telling me what Mortality value was observed for `CNC(=O)[C@H]1CCCN1C(=O)[C@@H](Cc1c[nH]cn1)NC(=O)[C@@H]1CC(=O)N(C)C(=O)N1` ?
0

I'd like to know its Mortality. The compound in question is `CCC[C@H](NC(=O)[C@@H]1CC(=O)N(C)C(=O)N1)C(=O)N1CCC[C@@H]1C(N)=O`
0

Bench note: what Mortality did `Cn1c(=O)cc(C(=O)N[C@@H](Cc2c[nH]cn2)C(=O)N2CCC[C@@H]2C(N)=O)[nH]c1=O` show?
0

Looking for the measured Mortality of `CCCN1C(=O)C[C@@H](C(=O)N[C@@H](Cc2c[nH]cn2)C(=O)N2CCC[C@H]2C(N)=O)NC1=O` , can you help?
0
